// provenance: patent US20080058263A1

target: T1, VEGFR-1-Fc (UniProt P17948 27-338); experiment: receptor-Fc IP
T1 construct: domain: first three Ig domains; expressed in Drosophila S2 cells, purified on Protein A sepharose; also called VEGFR-1-Fc fusion protein; not shown: Fc fragment from the Signal-pIgPlus vector
T1 sequence (P17948 27-338): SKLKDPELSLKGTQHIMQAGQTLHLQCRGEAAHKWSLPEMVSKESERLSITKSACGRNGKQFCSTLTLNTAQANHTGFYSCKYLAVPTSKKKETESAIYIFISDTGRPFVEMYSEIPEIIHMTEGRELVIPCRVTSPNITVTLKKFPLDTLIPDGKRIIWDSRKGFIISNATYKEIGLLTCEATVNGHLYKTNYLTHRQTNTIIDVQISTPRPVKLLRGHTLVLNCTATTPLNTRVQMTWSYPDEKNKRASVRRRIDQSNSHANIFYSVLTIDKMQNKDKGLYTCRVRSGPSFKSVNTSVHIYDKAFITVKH
reported_property: binding result

Here's what some known entries look like.
binder="71-12 (ligand) GQNHHEVVKSIDNEWRKTQCMPREVCIDVGKEYPDEIEYIFKPSCVPLMRCGGCCNSEGLQCMNTSTSYLSKTLFEITVPLSQGPKPVTISFLQHNKCECRPKKD" result="no binding"
binder="13-1 (ligand) GQNHHEVVKFMDVYQRSYCHPIETLVDIFQEYPDEIEYIFKPPCVSVYRCGGCCNDEGLECVPTEESNITMQIMRIKPHQGQHIGEMSFLQHNKCECRPKKD" result=binds
binder="22-4 (ligand) AHYNTEILKSIDNEWRKTQCMPREVCIDVGKEFGVATNTFFKPPCVSVYRCGGCCNSEGLQCMNTSTSYLSKTLFEIKPHQGQHIGEMSFLQHNKCECRPKKD" result="no binding"
binder="73-1 (ligand) GQNHHEVVKSIDNEWRKTQCMPREVCIDVGKEYPDEIEYIFKPPCVSVYRCGGCCNDEGLECVPTEESNITMQIMRIKPHQGQHIGEMSFLQHNKCECRPKKD" result="no binding"

Q) binding result for 54-11 (ligand) AHYNTEILKSIDNEWRKTQCMPIETLVDIFQEFGVATNTFFKPSCVPLMRCGGCCNSEGLQCVPTEESNITMQIMRITVPLSQGPKPVTISFLQHNKCECRPKKD ?
A) no binding

Q) Entry 32-6 (ligand) GQNHHEVVKSIDNEWRKTQCMPIETLVDIFQEFGVATNTFFKPPCVSVYRCGGCCNDEGLECMNTSTSYLSKTLFEIKPHQGQHIGEMSFANHTSCRCMSKLD please
A) no binding

Q) Follow-up entry: 84-3 (ligand) AHYNTEILKFMDVYQRSYCHPIETLVDIFQEFGVATNTFFKPSCVPLMRCGGCCNSEGLQCVPTEESNITMQIMRIKPHQGQHIGEMSFLQHNKCECRPKKD
A) binds

Q) Subsequent entry: 64-8 (ligand) GQNHHEVVKFMDVYQRSYCHPREVCIDVGKEFGVATNTFFKPSCVPLMRCGGCCNSEGLQCMNTSTSYLSKTLFEIKPHQGQHIGEMSFANHTSCRCMSKLD
A) no binding

Q) // query: 74-14 (ligand) GQNHHEVVKSIDNEWRKTQCMPREVCIDVGKEFGVATNTFFKPSCVPLMRCGGCCNDEGLECMNTSTSYLSKTLFEITVPLSQGPKPVTISFANHTSCRCMSKLD
A) no binding

Q) Another binder to check: 63-1 (ligand) GQNHHEVVKFMDVYQRSYCHPREVCIDVGKEYPDEIEYIFKPPCVSVYRCGGCCNDEGLECVPTEESNITMQIMRIKPHQGQHIGEMSFLQHNKCECRPKKD
A) binds

Q) And for 41-3 (ligand) AHYNTEILKFMDVYQRSYCHPREVCIDVGKEYPDEIEYIFKPSCVPLMRCGGCCNSEGLQCVPTEESNITMQIMRIKPHQGQHIGEMSFLQHNKCECRPKKD ?
A) no binding

Q) Could you do the same for 34-14 (ligand) GQNHHEVVKSIDNEWRKTQCMPIETLVDIFQEFGVATNTFFKPSCVPLMRCGGCCNDEGLECMNTSTSYLSKTLFEITVPLSQGPKPVTISFANHTSCRCMSKLD , please?
A) no binding

Q) How about 23-11 (ligand) AHYNTEILKSIDNEWRKTQCMPREVCIDVGKEYPDEIEYIFKPPCVSVYRCGGCCNSEGLQCVPTEESNITMQIMRITVPLSQGPKPVTISFLQHNKCECRPKKD ?
A) no binding

Q) Likewise for 52-6 (ligand) AHYNTEILKSIDNEWRKTQCMPIETLVDIFQEFGVATNTFFKPPCVSVYRCGGCCNDEGLECMNTSTSYLSKTLFEIKPHQGQHIGEMSFANHTSCRCMSKLD ?
A) no binding

Q) For 73-13 (ligand) GQNHHEVVKSIDNEWRKTQCMPREVCIDVGKEYPDEIEYIFKPPCVSVYRCGGCCNDEGLECVPTEESNITMQIMRITVPLSQGPKPVTISFANHTSCRCMSKLD then?
A) no binding

Q) Can you handle 32-7 (ligand) GQNHHEVVKSIDNEWRKTQCMPIETLVDIFQEFGVATNTFFKPPCVSVYRCGGCCNSEGLQCVPTEESNITMQIMRIKPHQGQHIGEMSFANHTSCRCMSKLD next?
A) no binding
